Target: T1, recombinant extracellular domain of the predominant human CD22-beta isoform (CD22-ECD) (human, UniProt P20273 20-687, CHO-expressed glycoprotein. Capture on an SA chip implies biotinylation, but the patent does not state it for SPR.)
T1 construct: Expressed in CHO-3E7 cells, IMAC and SEC purified, monomeric fraction; Results say it was immobilized onto a CM5 dextran chip; also called human CD22-ECD; hCD22 ecto-domain
T1 sequence: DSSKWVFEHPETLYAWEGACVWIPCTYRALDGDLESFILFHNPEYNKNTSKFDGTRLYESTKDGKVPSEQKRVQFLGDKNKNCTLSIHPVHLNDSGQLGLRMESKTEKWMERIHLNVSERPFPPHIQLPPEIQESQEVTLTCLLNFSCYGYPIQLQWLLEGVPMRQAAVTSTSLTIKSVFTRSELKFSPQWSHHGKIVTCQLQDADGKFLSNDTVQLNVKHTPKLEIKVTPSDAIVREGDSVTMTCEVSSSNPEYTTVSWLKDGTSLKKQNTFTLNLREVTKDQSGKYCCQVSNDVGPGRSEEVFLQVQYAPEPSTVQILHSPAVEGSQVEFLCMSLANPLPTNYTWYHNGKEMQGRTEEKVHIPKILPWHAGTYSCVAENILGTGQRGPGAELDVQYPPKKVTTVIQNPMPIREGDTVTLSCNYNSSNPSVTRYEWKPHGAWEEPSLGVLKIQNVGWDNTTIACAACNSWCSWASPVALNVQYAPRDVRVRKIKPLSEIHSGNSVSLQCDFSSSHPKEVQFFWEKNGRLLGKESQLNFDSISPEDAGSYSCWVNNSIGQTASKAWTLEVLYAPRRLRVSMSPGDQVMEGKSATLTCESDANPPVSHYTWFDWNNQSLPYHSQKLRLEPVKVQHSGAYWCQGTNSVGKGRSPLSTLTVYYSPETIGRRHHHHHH
Test: SPR, Biacore T200, VHH over immobilized CD22-ECD
MEASURE: kon (M⁻¹ s⁻¹)
Response body: numeric value in M⁻¹ s⁻¹, unit text excluded.

Solved entries (count: 4):
BINDER	MEASURE	VALUE MEASURED
hCD22pas-10 (VHH, single biotin at the VHH C-terminal (biotinylation signal sequence), llama VHH, expressed in E. coli TG1, IMAC purified, monomeric SEC fraction; also called VHH # 6) VHH: QVQLVESGGGLVQPGDSLRLSCTVSGFTSDYYAMGWFRQAPGKEREAVSCISSSDGVTYYADSVRGRFTISRDNAKNTVYLEMNSLKPEDTAIYYCAVDKPFYDGGYLYTCPVDFDSWGQGTQVTVSS	kon	152000
hCD22pas-64 (VHH, single biotin at the VHH C-terminal (biotinylation signal sequence), llama VHH, expressed in E. coli TG1, IMAC purified, monomeric SEC fraction; also called VHH # 25; 7-hCD22 pas-64) VHH: QVQLVESGGGLVQAGGSLRLSCAASGSTFSLNTMAWYRQAPGNQREYVAAASSDGYTNYADSVRGRFTISRDNDKNTMYLQMNSLRPEDTAVYYCTWGTGRFADYIYWGQGTQVTVSS	kon	108000
hCD22100ng-2 (VHH, single biotin at the VHH C-terminal (biotinylation signal sequence), llama VHH, expressed in E. coli TG1, IMAC purified, monomeric SEC fraction; also called VHH # 2) VHH: QVKLEESGGGLVQPGGSLRLSCTVSGVTFDYYVMGWFRQAPGKEREVVSCMRNSDGVTYYADSVKGRFTISRDNAKNTVYLQMNSLKPDDTAIYYCAVDKPFYDGGNYYTCPVDFDSWGQGTQVTVSS	kon	46800
hCD221ug-93 (VHH, single biotin at the VHH C-terminal (biotinylation signal sequence), llama VHH, expressed in E. coli TG1, IMAC purified, monomeric SEC fraction; also called VHH # 11) VHH: QVKLEESGGGLVQAGGSLRLSCAASGSTFSSSVMNWYRQAPGKQRELVAVITSSGSTHYADSVKGRFTISRDNAKNTVNLQMNSLKPEDTAVYYCNAQYGRRSDWGQGTQVTVSS	kon	1.36e+06

State its kon for this binder: hCD22pas-79 (VHH, single biotin at the VHH C-terminal (biotinylation signal sequence), llama VHH, expressed in E. coli TG1, IMAC purified, monomeric SEC fraction; also called VHH # 18) VHH: QVKLEESGGGLVQPGGSLRLSCTVSGRTSSVYGMAWFRQTPGKEREFVAAMSWSGGPTYFADSVKGRFGSSRDNAKNTVYLQMNGLRPEDTAVYYCAVRIRRTLLEPLTKETLYDYWGQGTQVTVSS
514000

State its kon for this binder: hCD221ug-13 (VHH, single biotin at the VHH C-terminal (biotinylation signal sequence), llama VHH, expressed in E. coli TG1, IMAC purified, monomeric SEC fraction; also called VHH # 21; 1-hCD22 1ug-13) VHH: QVQLVESGGGLVQAGDSLRLSCAGSGGSFSSVTMAWFRQAPGKDREFVAAITWSSPSTYYADSVKGRFTISRDNAKNTVYLQMNSLKPEDTAVYYCAGGRTGRGTSADTDEYNYWGQGTQVTVSS
232000
